target: PDE1A (Homo sapiens, UniProt P54750); construct: purchased Reaction Biology Corporation, Malvern, Pa; assay: Phosphodiesterase enzyme screening assay, PDE1A; format: biochemical; settings: ratio of IC50 values; value greater than 1 indicates greater selectivity for PDE9A2
Sequence (P54750 whole entry): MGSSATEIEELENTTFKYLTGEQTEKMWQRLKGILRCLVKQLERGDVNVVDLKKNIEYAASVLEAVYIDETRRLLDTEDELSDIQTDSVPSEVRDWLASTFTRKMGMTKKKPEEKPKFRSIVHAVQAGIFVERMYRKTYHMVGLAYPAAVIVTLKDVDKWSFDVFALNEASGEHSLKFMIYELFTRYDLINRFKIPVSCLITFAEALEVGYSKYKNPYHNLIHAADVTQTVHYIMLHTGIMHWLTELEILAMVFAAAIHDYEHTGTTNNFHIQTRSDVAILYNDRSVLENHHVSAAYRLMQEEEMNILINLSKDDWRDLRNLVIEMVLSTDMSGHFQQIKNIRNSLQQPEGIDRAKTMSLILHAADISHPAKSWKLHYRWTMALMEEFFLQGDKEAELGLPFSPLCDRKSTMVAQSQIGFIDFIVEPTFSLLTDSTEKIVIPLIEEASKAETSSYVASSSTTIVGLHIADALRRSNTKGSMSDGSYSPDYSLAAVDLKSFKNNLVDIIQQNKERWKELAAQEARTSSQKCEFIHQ
// boundary case: PDE1A selectivity (versus PDE9A2) equal to 200 maps to label 0; strictly smaller maps to label 1

Answer whether the compound CC1CN(Cc2nccs2)CC1c1nn2c(C3CCOCC3)ncc2c(=O)[nH]1 (single isomer, unassigned; (+)) has PDE1A selectivity (versus PDE9A2) strictly less than 200 label 1

Moving on to CC1CN(Cc2ccc(-c3ccccc3)cc2)CC1c1nn2c(C3CCOCC3)ncc2c(=O)[nH]1 (single isomer, unassigned; (-)) label 0

Moving on to CC1CN(Cc2ncn(C)n2)CC1c1nn2c(C3CCOCC3)ncc2c(=O)[nH]1 (single isomer, unassigned; (+)) label 0

Moving on to CC1CN(Cc2cnn3ccccc23)CC1c1nn2c(C3CCOCC3)ncc2c(=O)[nH]1 (single isomer, unassigned; (+)) label 0

Moving on to CC1CN(Cc2ncon2)CC1c1nn2c(C3CCOCC3)ncc2c(=O)[nH]1 (single isomer, unassigned; (+)) label 1

Moving on to CC1CN(CC2CCC(F)(F)CC2)CC1c1nn2c(C3CCOCC3)ncc2c(=O)[nH]1 (single isomer, unassigned; (+)) label 1

Moving on to CC1CN(Cc2ncco2)CC1c1nn2c(C3CCOCC3)ncc2c(=O)[nH]1 (single isomer, unassigned; (+)) label 1

Moving on to Cc1nc(CN2CC(C)C(c3nn4c(C5CCOCC5)ncc4c(=O)[nH]3)C2)no1 (single isomer, unassigned; (+)) label 1

---

molecular target: PDE1A (Homo sapiens, UniProt P54750); construct: purchased Reaction Biology Corporation, Malvern, Pa; assay: Phosphodiesterase enzyme screening assay, PDE1A; assay type: biochemical; conditions: ratio of IC50 values PDE1A vs PDE9A2; value greater than 1 indicates greater selectivity for PDE9A2
// boundary case: PDE1A selectivity (versus PDE9A2) equal to 300 maps to not met; strictly smaller maps to met

Answer whether the compound CC1CN(Cc2ccccn2)CC1c1nn2c(C3CCC(F)(F)CC3)ncc2c(=O)[nH]1 (single isomer, unassigned; (+)) has PDE1A selectivity (versus PDE9A2) strictly less than 300 met

Moving on to Cc1ccc(F)cc1-c1ncc2c(=O)[nH]c(C3CN(Cc4cccnc4)CC3C)nn12 (single isomer, unassigned; (+)) not met

Moving on to CC1CN(Cc2cccnc2)CC1c1nn2c(C3CCC(F)(F)CC3)ncc2c(=O)[nH]1 (single isomer, unassigned; (+)) met

Moving on to Cc1cc(F)ccc1-c1ncc2c(=O)[nH]c(C3CN(Cc4cccnc4)CC3C)nn12 (single isomer, unassigned; (+)) not met

Moving on to Cc1ccc(F)cc1-c1ncc2c(=O)[nH]c(C3CN(Cc4ccc(Cl)cc4)CC3C)nn12 (single isomer, unassigned; (-)) not met

Moving on to Cc1ccc(F)cc1-c1ncc2c(=O)[nH]c(C3CN(Cc4cn5ccccc5n4)CC3C)nn12 (single isomer, unassigned; (+)) not met

Moving on to Cc1cc(F)ccc1-c1ncc2c(=O)[nH]c(C3CN(Cc4ccc(F)cc4)CC3C)nn12 (single isomer, unassigned; (+)) not met

Moving on to CC1CN(Cc2cn3ccccc3n2)CC1c1nn2c(C3CCC(F)(F)CC3)ncc2c(=O)[nH]1 (single isomer, unassigned; (+)) not met
